The measured values listed here are drawn from the supplement of paper PMC9170038.

System: MS2 coat protein
Assay: apparent KD of MS2 coat protein; designed switch direction (-1 OFF switch, 1 ON switch): -1; higher = weaker reporter binding
Conditions: input ligand: FMN 200 uM
Criterion: apparent KD of MS2 coat protein meeting or surpassing 20 nM. Met: MET. Not met: NOT MET.

# residue-codes, cat
measured = [
    ("GAAUGAGAGCAGGAUAUCUUAUAAAUGUAUGAAAGAGAAGGGCUCACAUGAGGAUCACCCAUGUGGUCCUAGAU [jl-ex6-4.76 jandersonlee mod] (Eterna round: R97, puzzle: Exclusion 6)", "MET"),
    ("AAGGAUAGAGGAUAUACGUAGAUACAGAUUCAUGUAGAACUACAUGAGGAUCACCCAUGUAGAAGGCUAUCCUA [Fiskers Ex 2 - 6] (Eterna round: R96, puzzle: Exclusion 2)", "MET"),
    ("AGAAGUAGAAACCGAUCCUACAUGAGGAUCACCCAUGUAGCAAGACGUGCACGCGAAGCUCGUCAGACUACCAGAAG [solution 24] (Eterna round: R96, puzzle: Sensor v2, turn-off variant)", "MET"),
    ("GACUAGUGAGGAUAUACUUGCAGUGUACCUCGGGUGAUCUCACUUGAGGAUCACCCAAGUAGAAGGCGCGAGGG [EX2 #23] (Eterna round: R97, puzzle: Exclusion 2)", "NOT MET"),
    ("CAUGUUGACAGAGGAUAUGCAAUGUGAUUUAGGGUAGAAGGCUGAGACAUGAGGAUCACCCAUGUGGGUGCGUUCUAGCGACAA [Atmala] (Eterna round: R96, puzzle: Exclusion NG 1)", "MET"),
    ("UAAAACCGGUGAGGAUAUUUUUAAUAGAGCUUUAUGAUAUACAUGAGGAUCACCCAUGUUACGUUAAAGAAGGCAUCGGAAAAU [Mat - Exclusion NG 2 - Mod of JL - D99] (Eterna round: R96, puzzle: Exclusion NG 2)", "NOT MET"),
    ("GUAUAACAUGUAGGAUAUGCGUGGCGAAGCUAUGCAGAAGGACAUGAGGAUCACCCAUGUAAUAGCGUCUGCGUACAGAUGCAA [Mat - Exclusion NG 1 - Mod of JL - D90] (Eterna round: R96, puzzle: Exclusion NG 1)", "MET"),
    ("GACCCACAUGAGGAUCACCCAUGUCAGGAUAUGCAGUUGGAUGCGUCAGAUUUCCAUAGCAGAAGGGAUCUGGC [Eternabot (Original) Solution 14] (Eterna round: R97, puzzle: Exclusion 1)", "NOT MET"),
    ("UUUAUAUAUGAAGGAUAUACUUAACAUGAGGAUCACCCAUGUGGUGUUGUGAGUGAGUGAGUUUAGUAGAAGGUCAAUGAUUUU [JMF's solution 70] (Eterna round: R96, puzzle: Exclusion NG 2)", "MET"),
    ("UUAUUUAGGUAGGAUAUCGAUACCAAUUACUAUCGAGAAGGGUCUACAUGAGGAUCACCCAUGUUAGCAUGUUU [LRO-Excl6-12-Rocketman] (Eterna round: R97, puzzle: Exclusion 6)", "MET"),
    ("GCGGACAAGAUAUAAAUAUCAGAGACAUGAGGAUCACCCAUGUAGGAUAUCGAUUCGAAACGAAUCGAGAAGGGCAUAGUCCGC [JL denovo 1] (Eterna round: R96, puzzle: Exclusion NG 3)", "NOT MET"),
    ("UUGGUUGUGGUAGGAUAUCCGUUGGAAACUGUUGGAGAAGGACCACAGUCACUGGGUCCUUGUUUGGUGGAGUGGAAGAACCAU [pwkr exNG1 F6.16] (Eterna round: R96, puzzle: Exclusion NG 1)", "MET"),
    ("GUCAGCUCGUGAGGAUAUGCACAUGAGGAUCACCCAUGUAAGAUCAAGCUGCUUCGGCAGCAAGUGCAGAAGGCACGAGCUGAU [ENG2/9-A3] (Eterna round: R96, puzzle: Exclusion NG 2)", "MET"),
    ("GGCCCGGGAGGAUAUACAUGAGGAUCACCCAUGUUGAAGUUGAAGAUCUUCGGCUUCGGUAGAAGGCCCGGGCC [-35, -32.8 kcal, 23% A, 3, 0] (Eterna round: R97, puzzle: Exclusion 3)", "NOT MET"),
    ("AUAAGGGCAGGAUAUGCAGAAAAGAUUGGCGUGGUCCUGACACAUGAGGAUCACCCAUGUAGAAGGGCCUAGCC [Maquzaar] (Eterna round: R97, puzzle: Exclusion 2)", "NOT MET"),
    ("GUAGAGUCAGGAUAUACAAAACCAUCGAAAGAUGGAUCCAUACAUGAGGAUCACCCAUGUAGAAGGGACUCUAC [Eli x2 4.17] (Eterna round: R97, puzzle: Exclusion 2)", "MET"),
    ("ACAUGAGGAUCACCCAUGUUCGGCUGGUCCGUCUCGGCUGUCGAGGAUAUAGUUCGGUGUCCGCGCUAGAAGGCGGGAGCUGGC [Aenatbe mod 65] (Eterna round: R96, puzzle: Exclusion NG 3)", "MET"),
    ("UCUCGCGGGCAAGGAUAUCCUACGUUGUUCUGGCCCGUGUAUGUUACAUGAGGAUCACCCAUGUGGGAGAAGGUGCACCAGGGC [Design 39] (Eterna round: R96, puzzle: Exclusion NG 2)", "MET"),
]

---

System: K4 kissing-loop RNA reporter
Assay: apparent KD of K4 kissing-loop reporter; higher = weaker reporter binding
Settings: Eterna round: R107; input ligand: none
readout-name: apparent KD of K4 kissing-loop reporter (nM)

# residue-codes, readout-name, readout-unit, value-observed
data = [
    ("UUAUAAUUCAGUGAUGUUGAAAAUAUAACAGAGGAUAUGCGUUUAAGCAGAAGGCUGAAAUACUAUACUUUAAUCUAUUAAAUUU [JR_SSFMNA_Sub019]", "apparent KD of K4 kissing-loop reporter", "nM", 313),
    ("AGACUACUGAUAGGAUAUAACAUACUAGCUCGUAUACCAAAGGUAUACGAGCUCCUUCUAGUGAUGUUAGAAGGGUCGGUAGUCA [Omei KL FMN B Exc B v4]", "apparent KD of K4 kissing-loop reporter", "nM", 106),
    ("AAGUCAUAGGCAGGAUAUGCUUAGUAUUAAGGCCAUAUAUACGUAUAGAGUGAUGUUUUGUACCAGGCAGAAGGGCUACAUCCGU [FMN B Excl V5 (+2U)]", "apparent KD of K4 kissing-loop reporter", "nM", 699),
]

---

System: K4 kissing-loop RNA reporter;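 note: bound reporter read as fluorescence of individual clusters on recovered sequencing chips by microscopy, with normalized cluster intensities fitted with a binding model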
Assay: apparent KD of K4 kissing-loop reporter; higher = weaker reporter binding
Details: Eterna round: R107; input ligand: none
readout-name: apparent KD of K4 kissing-loop reporter (nM)

# residue-codes, value-observed
records = [
    ("AAAAUUAACAAGAGUGAUGUUCUUGUUAGACAGGAUAUCGGUUUAACGAGAAGGGUCGUGGCUCCAUUGGGCCCAGUGGUUCACC [Mazareri]", 687),
    ("AGACUACCACACUGUCAAUAGACAGUGUACUAGGAUAUGCUGAUAAGCAGAAGGAGUGAUGUUCCUAGGUAGUCAAUAAAAUAAU [FmnAX 13 U28]", 494),
    ("AGAUAGGGCUGAAGGAGCGUCGGAGAAGAGAAGAAGGAAUCCAGUGAUGUUGGAUAGAUCCGACAGGUAGGUCGCAGUUUUAUGA [hbob_SS_Arginine_B_2t139]", 133),
    ("CGCAGUGAUGUUGCGAGUAGCUACAGGGAAGGAGCGUGCUAGAGCACAGGUAGGUCGCCCACUGGGUCAGUGAUGUUGGUCGGGU [Same State Arginine A GF 29]", 180),
    ("GCUAUGGUAGGAAGGAGCGCUUAUUUAUUUUUAAGAGUGAUGUUCGAUAGUAGAUAUUUAAAGCAGGUAGGUCGCCUACUAUAGC [Arginine B K4 13]", 108),
    ("AAGUAAUGUAUAGAUUAUAUACAUUAAACAGAGGAUAUGCAUUAUUGCAGAAGGCUGAAUGCAGUGAUGUUGCAAUAAUUAUUUA [JR_SSFMNA_Sub002]", 184),
]

---

Test system: MS2 coat protein
Experiment: apparent KD of MS2 coat protein; designed switch direction (-1 OFF switch, 1 ON switch): 1; higher = weaker reporter binding
Conditions: input ligand: microRNA oligo, concentration not stated
readout-name: apparent KD of MS2 coat protein

# residue-codes, readout-name, value-observed
rows = [
    ("GACCGCGAGGAAGGAUAUGGAGCCUUAUUGGCUCCAGAAGGUCCAUAAAGGACAUGAGGAUCACCCAUGUGGGUUGGAGCGGUC [Fiskers NG1ss - 0] (Eterna round: R96, puzzle: Same State NG 1)", "apparent KD of MS2 coat protein", "96.2 nM"),
    ("CUCAACAACACAGGAUAUCCAGGGAAAAGACCUGGAGAAGGGUGACCAACAUGAGGAUCACCCAUGUGACGGCUAGACCGUCUG [Isquce] (Eterna round: R96, puzzle: Same State NG 1)", "apparent KD of MS2 coat protein", "24 nM"),
    ("UUUAGCGUUACAGGAUAUGGUGAGGAUCACCCACUAGAAGGGUAAACAUGUGCGUCGUACAUGAGGAUCACCCAUGUAGGGCGU (Eterna round: R96, puzzle: Same State NG 1)", "apparent KD of MS2 coat protein", "13.7 nM"),
]
